Below, each entry is listed alongside its reported melting point.

Examples from the recorded data:
[
  {
    "compound": "Cc1cccc2nc(O)n(C3CCC(=O)NC3=O)c(=O)c12 (stereo not drawn) [Example 6.5]",
    "endpointValue": "373 to 375 °C"
  },
  {
    "compound": "CCCCc1nc2cccc(C)c2c(=O)n1C1CCC(=O)NC1=O (stereo not drawn) [Example 6.14]",
    "endpointValue": "190 to 192 °C"
  },
  {
    "compound": "Cc1nc2cccc(CNC(=O)c3ccc(Cl)c(Cl)c3)c2c(=O)n1C1CCC(=O)NC1=O (stereo not drawn) [Example 6.56]",
    "endpointValue": "271 to 273 °C"
  }
]

Provide measured melting point value, entry: Cc1nc2cccc(CNC(=O)CC(C)(C)C)c2c(=O)n1C1CCC(=O)NC1=O (stereo not drawn) [Example 6.33] 212 to 214 °C

Provide measured melting point value, entry: Cc1cccc2nc(C)n(C3CCC(=O)NC3=O)c(=O)c12 (stereo not drawn) [Example 6.2] 292 to 294 °C

Provide measured melting point value, entry: Cc1cccc2ncn(C3CCC(=O)NC3=O)c(=O)c12 (stereo not drawn) [Example 6.1] 262 to 264 °C

Provide measured melting point value, entry: Cc1nc2cccc(CNC(=O)Nc3ccc(Cl)cc3)c2c(=O)n1C1CCC(=O)NC1=O (stereo not drawn) [Example 6.46] 255 to 257 °C

Provide measured melting point value, entry: CCc1nc2cccc(C)c2c(=O)n1C1CCC(=O)NC1=O (stereo not drawn) [Example 6.13] 228 to 230 °C

====

Below, each entry is listed alongside its reported melting point.

[
  {
    "compound": "CCCCCCC(=O)NCc1cccc2nc(C)n(C3CCC(=O)NC3=O)c(=O)c12 (stereo not shown)",
    "recordedEndpoint": "melting point",
    "endpointValue": "208 to 210 °C"
  },
  {
    "compound": "Cc1cccc2nc(C(F)(F)F)n(C3CCC(=O)NC3=O)c(=O)c12 (stereo not shown)",
    "recordedEndpoint": "melting point",
    "endpointValue": "308 to 310 °C"
  },
  {
    "compound": "Cc1nc2cccc(N)c2c(=O)n1[C@]1(C)CCC(=O)NC1=O",
    "recordedEndpoint": "melting point",
    "endpointValue": "295 to 297 °C"
  },
  {
    "compound": "CC(=O)Nc1cccc2nc(C)n(C3CCC(=O)NC3=O)c(=O)c12 (stereo not shown)",
    "recordedEndpoint": "melting point",
    "endpointValue": "320 to 322 °C"
  }
]

Provide measured melting point value, entry: CCOC(=O)Nc1cccc2nc(C)n(C3CCC(=O)NC3=O)c(=O)c12 (stereo not shown) 284 to 286 °C (dec.)

Provide measured melting point value, entry: CCOCC(=O)Nc1cccc2nc(C)n(C3CCC(=O)NC3=O)c(=O)c12 (stereo not shown) 291 to 293 °C

Provide measured melting point value, entry: Cc1nc2cccc(CNC(=O)c3ccccn3)c2c(=O)n1C1CCC(=O)NC1=O (stereo not shown) 261 to 263 °C

Provide measured melting point value, entry: Cc1nc2cccc(CNC(=O)Cc3ccc(Cl)c(Cl)c3)c2c(=O)n1C1CCC(=O)NC1=O (stereo not shown) 262 to 264 °C

Provide measured melting point value, entry: Cc1nc2cccc(NC(=O)CCl)c2c(=O)n1C1CCC(=O)NC1=O (stereo not shown) 275 to 277 °C

Provide measured melting point value, entry: Cc1nc2cccc(CNC(=O)OC(C)(C)C)c2c(=O)n1C1CCC(=O)NC1=O (stereo not shown) 206 to 208 °C

Provide measured melting point value, entry: Cc1nc2cccc(CNC(=O)Cc3ccccc3)c2c(=O)n1C1CCC(=O)NC1=O (stereo not shown) 275 to 277 °C

Provide measured melting point value, entry: Cc1nc2cccc(C(F)(F)F)c2c(=O)n1C1CCC(=O)NC1=O (stereo not shown) 268 to 270 °C

Provide measured melting point value, entry: Cc1nc2cccc(CNC(=O)c3cccc(F)c3)c2c(=O)n1C1CCC(=O)NC1=O (stereo not shown) 240 to 242 °C

====

Below, each entry is listed alongside its reported melting point.

Examples from the recorded data:
[
  {
    "compound": "Cc1nc2cccc(CNC(=O)c3cccc(C(F)(F)F)c3)c2c(=O)n1C1CCC(=O)NC1=O (stereo not shown)",
    "melting point": "233 to 235 °C"
  },
  {
    "compound": "Cc1nc2cccc(CNC(=O)c3ccc(Cl)cc3)c2c(=O)n1C1CCC(=O)NC1=O (stereo not shown)",
    "melting point": "276 to 278 °C"
  },
  {
    "compound": "Cc1nc2cccc(CN)c2c(=O)n1C1CCC(=O)NC1=O.Cl (stereo not shown)",
    "melting point": "256 °C (dec.)"
  }
]

Provide measured melting point value, entry: COc1cccc2nc(C)n(C3CCC(=O)NC3=O)c(=O)c12 (stereo not shown) 274 to 276 °C

Provide measured melting point value, entry: CCCC(=O)NCc1cccc2nc(C)n(C3CCC(=O)NC3=O)c(=O)c12 (stereo not shown) 250 to 252 °C

====

Where a name gives a salt, the structure may show the parent alone.
Below, each entry is listed alongside its reported melting point.

Examples from the recorded data:
[
  {
    "compound": "O=C1CCC(n2cnc3cccc(Cl)c3c2=O)C(=O)N1 (centres unmarked)",
    "endpointValue": "308 to 310 °C"
  },
  {
    "compound": "Cc1nc2cccc(NC(=O)CN(C)C)c2c(=O)n1C1CCC(=O)NC1=O (centres unmarked) (as salt: chloride)",
    "endpointValue": "256 to 258 °C"
  },
  {
    "compound": "Cc1nc2cccc(NC(=O)c3cccc(Cl)c3)c2c(=O)n1C1CCC(=O)NC1=O (centres unmarked)",
    "endpointValue": "326 to 328 °C"
  },
  {
    "compound": "Cc1cccc2nc(-c3ccccc3)n(C3CCC(=O)NC3=O)c(=O)c12 (centres unmarked)",
    "endpointValue": "298 to 300 °C"
  }
]

Provide measured melting point value, entry: Cc1nc2cccc(CNC(=O)Cc3ccc(C(F)(F)F)cc3)c2c(=O)n1C1CCC(=O)NC1=O (centres unmarked) 199 to 201 °C

The measurements presented in this section are drawn from patent US8921385B2.
